Measured IC50 by item
biological target: HIV-1 integrase (wild-type IN) (Human immunodeficiency virus type 1 group M subtype B, UniProt P12497); assay: biochemical; conditions: IC50 ST (strand transfer), wild-type IN 200 nM, 7.5 mM MnCl2

Consider the reported IC50 for these compounds:
{"columns": ["compound", "endpoint", "obs value"],
 "data": [
  ["COc1ccc2cc(C=CC(=O)c3cc(Br)cc(C(=O)O)c3O)ccc2c1", "IC50", "54 µM"],
  ["O=C(O)c1cc(Cl)cc(C(=O)/C=C/c2ccc(Cl)cc2Cl)c1O", "IC50", "> 100 µM"],
  ["O=C(O)c1cc(Br)cc(C(=O)/C=C/c2c(Cl)ccc(Cl)c2Cl)c1O", "IC50", "< 3.7 µM"]
]}

Continue with the next compound.
Would you mind telling me what IC50 value was observed for O=C(O)c1cccc(CCCc2ccccc2)c1O [Compound 9, 2-hydroxy-3-(3-phenylpropyl)benzoic acid] ?
> 100 µM

###

target: HIV-1 integrase (wild-type IN) (Human immunodeficiency virus type 1 group M subtype B); test: biochemical
Measured IC50 by item

Consider the reported IC50 for these molecules:
{"columns": ["molecule", "IC50"],
 "data": [
  ["O=C(O)c1cccc(CCCc2ccccc2)c1O [Compound 9, 2-hydroxy-3-(3-phenylpropyl)benzoic acid]", "91 µM"],
  ["O=C(O)c1cc(Br)cc(C(=O)NCc2ccc(F)cc2)c1O", "> 100 µM"],
  ["O=C(O)c1cc(F)cc(C(=O)CCc2cc(Cl)ccc2Cl)c1O", "> 100 µM"],
  ["N#Cc1cc(Br)cc(C(=O)/C=C/c2c(Cl)ccc(Cl)c2Cl)c1O", "> 100 µM"],
  ["O=C(/C=C/c1c(Cl)ccc(Cl)c1Cl)c1cc(Br)cc([N+](=O)[O-])c1O", "36 µM"]
]}

Would you mind telling me what IC50 value was observed for "O=Cc1cc(Br)cc(C(=O)NCc2ccc(F)cc2)c1O" ?
> 100 µM

Note, next up: "Cc1cc(C(=O)O)c(O)c(C(=O)/C=C/c2c(Cl)ccc(Cl)c2Cl)c1"
> 100 µM

Note, next up: "O=C(/C=C/c1cc(Cl)cc(Cl)c1Cl)c1cc(Br)cc([N+](=O)[O-])c1O"
> 333 µM

###

target: HIV-1 integrase (wild-type IN) (Human immunodeficiency virus type 1 group M subtype B); assay: biochemical; settings: Actual ST pIC50, −log IC50 of strand transfer, used for 3D-QSAR
Measured pIC50 by item
Please keep in mind that pIC50 is minus log10 of the molar concentration; only the number is needed.

{"columns": ["chemical structure", "pIC50"],
 "data": [
  ["O=C(/C=C/c1c(Cl)ccc(Cl)c1Cl)c1cc(Br)cc([N+](=O)[O-])c1O", 4.67],
  ["COc1ccc2cc(C=CC(=O)c3cc(Br)cc(C(=O)O)c3O)ccc2c1", 4.26],
  ["O=C(O)c1cc(Br)cc(C(=O)/C=C/c2c(Cl)ccc(Cl)c2Cl)c1O", 5.40]
]}

Continue with the next compound.
Would you mind telling me what pIC50 value was observed for "O=C(/C=C/c1cc(Cl)cc(Cl)c1Cl)c1cc(Br)cc([N+](=O)[O-])c1O" ?
4.16

###

target: HIV-1 integrase (wild-type IN) (Human immunodeficiency virus type 1 group M subtype B, UniProt P12497); test: biochemical
Measured IC50 by item

{"columns": ["chemical structure", "obs value"],
 "data": [
  ["COc1ccc(/C=C/C(=O)c2cc(Br)cc(C(=O)O)c2O)c(Cl)c1OC", "> 100 µM"],
  ["O=C(O)c1cc(Br)cc(C(=O)/C=C/c2ccccc2-c2ccco2)c1O", "> 100 µM"],
  ["O=C(O)c1cc(Br)cc(C(=O)/C=C/c2cccc(OC(F)(F)F)c2)c1O", "> 100 µM"],
  ["COc1cc(F)c(/C=C/C(=O)c2cc(Br)cc(C(=O)O)c2O)cc1OC", "> 100 µM"]
]}

Would you mind telling me what IC50 value was observed for "Cc1cc(C)cc(/C=C/C(=O)c2cc(Br)cc(C(=O)O)c2O)c1" ?
> 100 µM
